# Lookup of reported pIC50 keyed by entry
biological target: human TLR9 (Homo sapiens (Human), UniProt Q9NR96); experiment: TLR9 inhibition reporter assay (HEK-Blue SEAP reporter, ODN2006 stimulation); settings: read-out: TLR9 IC50; HEK-Blue cells overexpressing human TLR9, ODN2006 5 nM, SEAP reporter;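 also: SEAP reporter under IFN-β minimal promoter with five NF-κB and AP-1 sites, 22 h incubation, compounds 0.05 nM–50 µM, inhibition relative to agonist plus DMSO versus known inhibitor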
Sequence (Q9NR96 26-1032): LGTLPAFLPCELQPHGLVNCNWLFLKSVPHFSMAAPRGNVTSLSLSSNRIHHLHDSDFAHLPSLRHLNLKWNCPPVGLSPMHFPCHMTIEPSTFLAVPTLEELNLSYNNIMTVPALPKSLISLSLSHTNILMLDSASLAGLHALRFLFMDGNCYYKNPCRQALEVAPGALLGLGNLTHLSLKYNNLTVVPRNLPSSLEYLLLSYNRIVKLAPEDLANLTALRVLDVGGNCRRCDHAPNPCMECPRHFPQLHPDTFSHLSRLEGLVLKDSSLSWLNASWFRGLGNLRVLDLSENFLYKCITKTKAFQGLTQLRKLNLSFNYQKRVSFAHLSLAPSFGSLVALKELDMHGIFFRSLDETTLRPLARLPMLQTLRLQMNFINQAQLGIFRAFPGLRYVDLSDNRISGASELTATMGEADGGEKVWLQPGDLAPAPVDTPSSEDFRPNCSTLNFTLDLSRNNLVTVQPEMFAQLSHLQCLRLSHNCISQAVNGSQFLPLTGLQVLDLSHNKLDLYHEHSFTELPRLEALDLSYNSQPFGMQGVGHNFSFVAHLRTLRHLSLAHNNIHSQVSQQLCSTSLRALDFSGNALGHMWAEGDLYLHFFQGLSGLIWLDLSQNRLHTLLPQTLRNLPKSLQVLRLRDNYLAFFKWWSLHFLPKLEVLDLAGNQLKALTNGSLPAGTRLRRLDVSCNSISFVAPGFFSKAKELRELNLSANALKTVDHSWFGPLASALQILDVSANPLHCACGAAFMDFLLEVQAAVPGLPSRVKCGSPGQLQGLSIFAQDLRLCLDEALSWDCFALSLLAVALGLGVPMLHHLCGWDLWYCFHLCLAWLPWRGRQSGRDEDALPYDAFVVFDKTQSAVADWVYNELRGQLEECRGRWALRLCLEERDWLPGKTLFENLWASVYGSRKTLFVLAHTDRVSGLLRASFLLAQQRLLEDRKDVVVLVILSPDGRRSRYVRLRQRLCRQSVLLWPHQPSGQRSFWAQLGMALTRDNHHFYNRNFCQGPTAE
pIC50: −log10 of the molar value.
Measured Attribute: pIC50

Compound	Limit Operator	Result Number
CCc1c(-c2ccc(OC)c(OC)c2)[nH]c2ccc(C(=O)N3CCC(C(N)=O)CC3)cc12	<	4.30
Cc1cc(-c2[nH]c3ccc(C(C)C(=O)NC4CCCC(N)C4)cc3c2C(C)C)ccn1 (centres unmarked) [Example 219]	=	5.76
CCc1c(-c2ccc(OC)c(OC)c2)[nH]c2ccc(C(=O)N3CCCN(C(C)=O)CC3)cc12	<	4.30
CCc1c(-c2ccc(OC)c(OC)c2)[nH]c2ccc(C(=O)N[C@H]3CC[C@H](N)CC3)cc12	=	5.55
Cc1cc(-c2[nH]c3ccc(C(C)(C)C(=O)NCC4CCCCN4)cc3c2C(C)C)ccn1 (centres unmarked)	=	6.07
CCc1c(-c2ccc(OC)c(OC)c2)[nH]c2ccc(C(=O)N3CC4CN(CC(=O)NC)CC4C3)cc12 (centres unmarked)	=	4.66
Cc1cc(-c2[nH]c3ccc(C(C)C(=O)N4CCCC5(CCCCC5N)C4)cc3c2C(C)C)ccn1 (centres unmarked)	=	5.73
CCc1c(-c2ccc(OC)c(OC)c2)[nH]c2ccc(C(=O)N3CCN(C4CCN(C(C)C)CC4)CC3)cc12	=	6.08
Cc1cc(-c2[nH]c3ccc(C(C)(C)C(=O)NC4C[C@H]5CC[C@@H](C4)N5C)cc3c2C(C)C)ccn1 (some centres unmarked)	=	5.08
CCc1c(-c2ccc(OC)c(OC)c2)[nH]c2ccc(C(=O)NCCc3cccnc3)cc12	<	4.30
Cc1cc(-c2[nH]c3ccc(C(C)(C)C(=O)NC4CCN(C(C)C)CC4)cc3c2C(C)C)ccn1	=	5.94
Cc1cc(-c2[nH]c3ccc(C(=O)NC4CCN(C(C)C)CC4)cc3c2C(C)C)cc(C)n1	=	6.17
CCc1c(-c2ccc(OC)c(OC)c2)[nH]c2ccc(C(=O)N3CCCN(c4ccccn4)CC3)cc12	=	5.14
Cc1cc(-c2[nH]c3ccc(C(C)C(=O)N4CCC5(CCN(C)C5)CC4)cc3c2C(C)C)ccn1 (centres unmarked)	=	5.88
COc1ccc(-c2[nH]c3ccc(C(=O)N(C)C)cc3c2C(C)C)cc1OC	<	4.30
Cc1cc(-c2[nH]c3ccc(C(=O)NC4CCN(C(C)C)CC4)cc3c2CC(F)F)cc(C)n1	=	6.64
CNC(=O)c1ccc2[nH]c(-c3ccc(OC)c(OC)c3)c(C(C)C)c2c1	=	4.52
Cc1cc(-c2[nH]c3ccc(C(=O)N4CCN(Cc5ncn(C)n5)CC4)cc3c2C(C)C)cc(C)n1	<	4.30
Cc1cc(-c2[nH]c3ccc(C(C)(C)C(=O)NCC4CCCNC4)cc3c2C(C)C)ccn1 (centres unmarked)	=	5.73
CCc1c(-c2ccc(OC)c(OC)c2)[nH]c2ccc(C(=O)NCc3ccc(N)cc3)cc12	<	4.30
CCc1c(-c2ccc(OC)c(OC)c2)[nH]c2ccc(C(=O)N3CCN(c4ccc(C(F)(F)F)cn4)CC3)cc12	=	4.99
Cc1cc(-c2[nH]c3ccc(C(C)C(=O)NC[C@@H]4CCNC4)cc3c2C(C)C)ccn1 (some centres unmarked)	=	5.14
CCc1c(-c2ccc(OC)c(OC)c2)[nH]c2ccc(C(=O)NCCC(C)(C)NS(C)(=O)=O)cc12	<	4.30
Cc1cc(-c2[nH]c3ccc(C(C)(C)C(=O)NC4CCC5CNCC54)cc3c2C(C)C)ccn1 (centres unmarked) [Example 144]	=	6.17
CCc1c(-c2ccc(OC)c(OC)c2)[nH]c2ccc(C(=O)NCCCN(C)C)cc12	=	6.60
Cc1cc(-c2[nH]c3ccc(C(C)C(=O)N[C@@H]4CCNC4)cc3c2C(C)C)ccn1 (some centres unmarked)	=	5.58
CCc1c(-c2ccnc(C)c2)[nH]c2ccc(C(=O)N3CC4CNCC4C3)cc12 (centres unmarked)	=	6.41
Cc1cc(-c2[nH]c3ccc(C(C)C(=O)N4CCC[C@H](N)C4)cc3c2C(C)C)ccn1 (some centres unmarked)	=	6.03
Cc1cc(-c2[nH]c3ccc(C(C)C(=O)N(C)C4CN5CCC4CC5)cc3c2C(C)C)ccn1 (centres unmarked)	=	6.33
